biological target: UniProt Q13639; test: Evaluation of agonistic activity in CHO-K1 cells expressing human 5-HT4(a) (GeneBlAzer HTR4-CRE-bla CHO-K1, beta-lactamase reporter); settings: CHO-K1 cells stably expressing human 5-HT4(a)
Counter-ions that a name gives are not always drawn.
Parameter: log10 EC50 (log10 of the value in pM)

Compound: CCCc1cc(N2CC[C@H](NC(=O)C(C)(C)O)C2)nc(Nc2cccc(C#N)c2)n1 [Example 153]
log10 EC50: 2.36
//
Compound: CCCc1cc(N2CC[C@H](N)C2)nc(Nc2ccc(F)c(C(F)(F)F)c2)n1 [Example 357, dihydrochloride]
log10 EC50: 0.81
//
Compound: CCCc1cc(N2CC[C@H](CNC(=O)OC(C)(C)C)C2)nc(Nc2cccc(C#N)c2)n1 [Example 56]
log10 EC50: 2.49
//
Compound: CCCc1cc(N2CC[C@H](NC(=O)CO)C2)nc(Nc2ccc(Cl)c(N)c2)n1 [Example 479]
log10 EC50: 0.81
//
Compound: CCCc1cc(N2CC[C@H](NC(C)=O)C2)nc(Nc2ccc(C)c(C(F)(F)F)c2)n1 [Example 280]
log10 EC50: 1.41
//
Compound: CCCc1cc(N2CC[C@H](NC)C2)nc(Nc2ccc(C)c(C#N)c2)n1 [Example 170]
log10 EC50: 0.11
//
Compound: CCCCc1cc(N2CC[C@H](NC(C)=O)C2)nc(Nc2cc(N)cc(C(F)(F)F)c2)n1 [Example 440]
log10 EC50: 1.23
//
Compound: CCCc1cc(N2CC[C@H](O)C2)nc(Nc2cccc(C#N)c2)n1 [Example 52]
log10 EC50: 2.52

* * *

# maps each entry to its pEC50
biological target: human 5-HT4(a) (Homo sapiens, UniProt Q13639); test: Evaluation of agonistic activity in CHO-K1 cells expressing human 5-HT4(a) (GeneBlAzer HTR4-CRE-bla CHO-K1, beta-lactamase reporter); conditions: CHO-K1 cells stably expressing human 5-HT4(a)
Sequence (Q13639 1-387 isoform Q13639-2): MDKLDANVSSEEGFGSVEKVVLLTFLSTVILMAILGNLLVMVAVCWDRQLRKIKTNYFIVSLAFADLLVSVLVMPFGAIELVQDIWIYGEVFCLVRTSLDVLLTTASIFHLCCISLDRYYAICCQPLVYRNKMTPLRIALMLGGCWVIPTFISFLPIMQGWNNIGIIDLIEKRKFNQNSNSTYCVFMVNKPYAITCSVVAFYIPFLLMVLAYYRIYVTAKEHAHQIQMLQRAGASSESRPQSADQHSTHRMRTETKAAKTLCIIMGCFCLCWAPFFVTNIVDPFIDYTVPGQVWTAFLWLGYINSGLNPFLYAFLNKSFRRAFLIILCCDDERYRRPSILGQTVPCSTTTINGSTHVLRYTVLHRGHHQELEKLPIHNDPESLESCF
pEC50: −log10 of the molar value.

Compound: CCCc1cc(N2CC[C@H](NC(=O)CC(F)(F)F)C2)nc(Nc2cccc(C#N)c2)n1 [Example 82]
Target or test system: human 5-HT4(a) (Homo sapiens, UniProt Q13639)
pEC50: 10.32
--
Compound: CCCc1cc(N2CCC(NC(C)=O)C2)nc(Nc2ccc3c(C)cc(=O)oc3c2)n1 (stereo not shown) [Example 309]
Target or test system: human 5-HT4(a) (Homo sapiens, UniProt Q13639)
pEC50: 10.12
--
Compound: CCCc1cc(N2CC[C@H](NCc3ccc(CC)cc3)C2)nc(Nc2cccc(C#N)c2)n1 [Example 92]
Target or test system: human 5-HT4(a) (Homo sapiens, UniProt Q13639)
pEC50: 10.24
--
Compound: CCCc1cc(N2CCC[C@H]2C)nc(Nc2ccc(C)c([N+](=O)[O-])c2)n1 [Example 321]
Target or test system: human 5-HT4(a) (Homo sapiens, UniProt Q13639)
pEC50: 10.36

* * *

target: human 5-HT4(a) (Homo sapiens); experiment: Evaluation of agonistic activity in CHO-K1 cells expressing human 5-HT4(a) (GeneBlAzer HTR4-CRE-bla CHO-K1, beta-lactamase reporter); conditions: CHO-K1 cells stably expressing human 5-HT4(a)
pEC50: −log10 of the molar value. Structures can show the parent of a compound that is named as a salt.
Each entry gets NOT MET if its pEC50 stays under 10, and MET if its pEC50 is 10 or above.

Molecule: CCCCc1cc(N2CC[C@H](N)C2)nc(Nc2ccc(C)c(C#N)c2)n1 [Example 234, dihydrochloride]
Target or test system: human 5-HT4(a) (Homo sapiens)
Class name: MET

Molecule: CCCCc1cc(N2CC[C@H](NCC)C2)nc(Nc2ccc(Cl)c([N+](=O)[O-])c2)n1 [Example 464]
Target or test system: human 5-HT4(a) (Homo sapiens)
Class name: MET

Molecule: CCCCc1cc(N2CC[C@H](NC)C2)nc(Nc2ccc(C)c(C#N)c2)n1 [Example 231]
Target or test system: human 5-HT4(a) (Homo sapiens)
Class name: MET

Molecule: CCCCc1cc(N2CC[C@H](NC(C)=O)C2)nc(Nc2cccc(C#N)c2)n1 [Example 223]
Target or test system: human 5-HT4(a) (Homo sapiens)
Class name: MET

Molecule: CCCc1cc(N2CC[C@H](NCc3ccc(OC(C)=O)cc3)C2)nc(Nc2cccc(C#N)c2)n1 [Example 109]
Target or test system: human 5-HT4(a) (Homo sapiens)
Class name: MET

Molecule: CCCc1cc(N2CC[C@H](NC(C)=O)C2)nc(Nc2ccc(C)c(N)c2)n1 [Example 292]
Target or test system: human 5-HT4(a) (Homo sapiens)
Class name: MET

Molecule: CCCc1cc(N2CCC[C@H]2C)nc(Nc2ccc(Cl)c(N)c2)n1 [Example 332]
Target or test system: human 5-HT4(a) (Homo sapiens)
Class name: MET

Molecule: CCCc1cc(N2CCC[C@H]2C)nc(Nc2ccc3cc[nH]c3c2)n1 [Example 315]
Target or test system: human 5-HT4(a) (Homo sapiens)
Class name: MET

Molecule: CCCCc1cc(N2CC[C@H](N(CC)CC)C2)nc(Nc2cccc(C#N)c2)n1 [Example 236]
Target or test system: human 5-HT4(a) (Homo sapiens)
Class name: NOT MET

Molecule: CCCc1cc(N2CCC[C@H]2C(=O)OC)nc(Nc2ccc3cc[nH]c3c2)n1 [Example 191]
Target or test system: human 5-HT4(a) (Homo sapiens)
Class name: NOT MET

Molecule: CCCc1cc(N2CC[C@H](NCCCSC)C2)nc(Nc2ccc(C)c(C#N)c2)n1 [Example 415]
Target or test system: human 5-HT4(a) (Homo sapiens)
Class name: MET

Molecule: CCCc1cc(N2CC[C@H](NC(C)C)C2)nc(Nc2cccc(C#N)c2)n1 [Example 138]
Target or test system: human 5-HT4(a) (Homo sapiens)
Class name: MET
